Biological target: T1, His-tagged human TfR ectodomain (hTFRC_89-760_G142S; mature protein) (human, UniProt P02786 89-760)
T1 construct: It carries the G142S haplotype; also called hTfR ectodomain
T1 sequence (P02786 89-760 G142S): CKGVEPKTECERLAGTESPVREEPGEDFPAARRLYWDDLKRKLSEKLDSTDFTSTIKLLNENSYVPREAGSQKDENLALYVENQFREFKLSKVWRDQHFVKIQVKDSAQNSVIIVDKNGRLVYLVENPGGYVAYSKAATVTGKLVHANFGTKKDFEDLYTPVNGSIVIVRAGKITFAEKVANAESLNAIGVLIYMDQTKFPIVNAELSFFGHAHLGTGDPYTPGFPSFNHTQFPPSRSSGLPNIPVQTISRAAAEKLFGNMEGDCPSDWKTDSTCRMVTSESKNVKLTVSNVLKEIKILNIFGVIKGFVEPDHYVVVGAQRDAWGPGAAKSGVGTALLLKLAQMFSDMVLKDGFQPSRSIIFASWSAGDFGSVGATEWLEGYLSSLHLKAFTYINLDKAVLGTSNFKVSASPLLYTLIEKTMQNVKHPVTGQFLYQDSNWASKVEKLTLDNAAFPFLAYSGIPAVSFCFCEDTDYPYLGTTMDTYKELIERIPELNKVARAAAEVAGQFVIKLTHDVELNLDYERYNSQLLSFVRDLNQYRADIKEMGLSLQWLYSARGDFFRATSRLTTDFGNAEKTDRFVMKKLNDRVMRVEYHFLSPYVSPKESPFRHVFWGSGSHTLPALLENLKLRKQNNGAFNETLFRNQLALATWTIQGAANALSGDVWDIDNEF
Assay: SPR, His-tagged TfR ectodomain captured on anti-His, 1:1 fit
Classify: Fulfilled when Kd is strictly less than 7 nM; Not fulfilled when Kd is not.

>>> classification("531_1L2_variant6 Fab (Fab, V domains shown, Humanized Fab; The His-tag was removed with TEV protease before SPR) VH: EVQLLESGGGLVQPGGSLRLSCAASGYTFTRYWLNWVRQAPGKGLEWIGMIDPSVSETHYADSVKGRATLSVDKSKNTAYLQMNSLRAEDTAVYYCSQIRLPYYYAMDSWGQGTTVTVSS VL: DIQMTQSPSSLSASVGDRVTITCRASQDISSFLNWYQQKPGKAVKLLIYYTSRLQSGVPSRFSGSGSGTDYTLTISSLQPEDFATYFCQQGNTLPRTFGGGTKVEIK")
"Not fulfilled"
>>> classification("531v25 Fab (Fab, V domains shown, The His-tag was removed with TEV protease before SPR) VH: QVQLVQSGAEVKKPGASVKVSCKASGYTFTRYYLNWVRQAPGQGLEWIGMIDPSVSETHYAQKFQGRATLTVDKSTSTAYMELSSLRSEDTAVYYCSQIRLPYYYAMDSWGQGTTVTVSS VL: DIQMTQSPSSLSASVGDRVTITCRASQDISSFLNWYQQKPGKAPKLLIYYTSRLQSGVPSRFSGSGSGTDYTLTISSLQPEDFATYYCQQGNTLPRTFGGGTKVEIKR")
"Fulfilled"
>>> classification("531_1L2_variant14 Fab (Fab, V domains shown, Humanized Fab; The His-tag was removed with TEV protease before SPR) VH: QVQLVQSGAEVKKPGASVKVSCKASDYTFTRYWLNWVRQAPGQGLEWMGMIDPSVSETHYAQKFQGRVTMTRDTSTSTVYMELSSLRSEDTAVYYCSQIRLPYYYAMDSWGQGTTVTVSS VL: DIQMTQSPSSLSASVGDRVTITCRASQDINSFLNWYQQKPGKAVKLLIYYTSRLQSGVPSRFSGSGSGTDYTLTISSLQPEDFATYFCQQGNTLPRTFGGGTKVEIK")
"Not fulfilled"

Would you kindly look at the next entry?
Query string: Record 531_1L2_variant17 Fab (Fab, V domains shown, Humanized Fab; The His-tag was removed with TEV protease before SPR) VH: QVQLVQSGAEVKKPGASVKVSCKASDYTFTRYWLNWVRQAPGQGLEWIGMIDPSVSETHYAQKFQGRATLTVDKSTSTAYMELSSLRSEDTAVYYCSQIRLPYYYAMDSWGQGTTVTVSS VL: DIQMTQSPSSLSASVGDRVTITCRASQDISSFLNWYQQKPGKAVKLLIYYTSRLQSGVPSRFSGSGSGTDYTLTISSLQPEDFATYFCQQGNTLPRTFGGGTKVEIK : is its Kd strictly below 7 nM?
Result string: Fulfilled

Taken from patent US20240226314A1.
